Reference source: PubChem BioAssay (NCI)

System: SK-MEL-28 melanoma
Assay: NCI tumour cell line growth inhibition, 48 h
parameter: GI50

// worked examples, GI50 included
[N-]=[N+]=NCCCn1c2c(c3ccc([N+](=O)[O-])cc3c1=O)C(=O)c1cc(I)ccc1-2 = 41.5 µM
COc1cc(N2CCN(C(C)C)CC2)ccc1Nc1nc(Nc2ccc(F)cc2C(=O)NCC(O)CO)c2cc[nH]c2n1 (stereo not given) = > 25 µM
CCCCOC(=O)/C=C\C(=O)NC(N)=O = 19.1 µM
CNCCCn1c2c(c3ccc(Cl)cc3c1=O)C(=O)c1cc(OC)cnc1-2 = 1.62 µM

Batch request: GI50 per item, same order as input.
1. O=C(NCCCl)NCCN1c2nc3ccccc3cc2Sc2cc3ccccc3nc21
2. N.N.N.N.N.N#Cc1nn[n-]n1.[Cl-].[Co+3]
3. COC1=CC(c2ccc[nH]2)=N/C1=C\c1[nH]c(C)c(C(=O)Oc2ccccc2)c1C

["2.8 µM", "> 100 µM", "0.595 µM"]

Batch request: GI50 per item, same order as input.
1. C=C1C[C@@H](O)[C@@H](Br)C(C)(C)[C@]12CCC(C)(Br)C(Cl)C2 (stereo not given in full)
2. O=C(/C=C\c1cc(Br)ccc1O)/C=C/c1cc(Br)ccc1O
3. CCOC(=O)Nc1ccc2nc(N3CCCCCC3)sc2c1

["18 µM", "0.555 µM", "7.14 µM"]

====

Tested on: A549 NSCLC
Test: NCI tumour cell line growth inhibition, 48 h; in the data active = GI50 below about 0.43 µM; inactive = the rest
// allowed return values: active, inactive

# lookup: test call for Clc1ccc(-c2nc3c(-c4ccccc4)nc(-c4ccccc4)cn3c2-c2ccc(Cl)cc2)cc1
inactive

# lookup: test call for Cc1cncc(-c2nc(NCCc3c[nH]c4ccccc34)c3ncn(C(C)C)c3n2)c1
inactive

====

Tested on: HCC-2998 colon
Test: NCI tumour cell line growth inhibition, 48 h; in the data active means GI50 below about 0.43 µM; inactive means the rest
// allowed return values: active, inactive

Worked set:
CCNC(=O)Oc1ccc(/C(=C(\C)c2ccc(Cl)cc2)c2ccc(OCCN(CC)CC)cc2)cc1 = inactive
COc1ccc(C2=NN(C=O)C(c3ccc(OS(=O)(=O)c4ccc(C)cc4)c(OC)c3)C2)cc1 (stereo not drawn) = inactive
CON=C1C[C@]2(C[C@@H]3C[C@@H](C/C=C(\C)C[C@@H](C)/C=C/C=C4\CO[C@@H]5[C@H](O)C(C)=C[C@@H](C(=O)O3)[C@]45O)O2)O[C@H](/C(C)=C/C(C)C)[C@H]1C = inactive
C[C@]12CCCN1CC1=NNC(=O)c3cc(F)cc4[nH]c2c1c34 = inactive
O=C(CN1CCN(CCN2C(=O)c3cccc4cccc(c34)C2=O)CC1)Nc1ccc2ncsc2c1 = inactive
CC(=O)NC(CS)C(=O)O (stereo not drawn) = inactive

# lookup: test call for O=C(/C=C/c1ccco1)Nc1ncc(Cc2cccc(C(F)(F)F)c2)s1
active

# lookup: test call for CC(C)(C)[Si](C)(C)OC1[C@@H](O[Si](C)(C)C(C)(C)C)[C@@H](CNC(=O)NC(=O)NC(=O)CCl)O[C@H]1n1cnc2c(NC(=O)Nc3ccccc3)ncnc21 (stereo partly drawn)
inactive

====

System: HCT-15 colon
Assay: NCI tumour cell line growth inhibition, 48 h
parameter: GI50

CN1CCN(Cc2ccc(NC(=O)c3cncc(C#Cc4c(N)ncc5c(F)cccc45)c3)cc2C(F)(F)F)CC1 = 600 nM
NS(=O)(=O)c1ccc(N=Nc2c(O)[nH]c3ccc(C(=O)NCCc4cnc[nH]4)cc23)cc1 = > 25000 nM
Clc1ccc(OCc2nnc3sc(SSc4nn5c(COc6ccc(Cl)cc6)nnc5s4)nn23)cc1 = 86200 nM

Batch request: GI50 per item, same order as input.
1. Nc1nc(=S)c2ncn(C3OC(CO)C(O)C3O)c2[nH]1 (stereo not given)
2. NC(=O)c1cc(I)ccc1NC(=O)/C=C/c1ccccc1Cl

1. 920 nM
2. 657 nM
